This collection of values is drawn from patent US20220177587A1.

Biological target: CD28 (human) (UniProt P10747)
Assay: flow cytometry, Jurkat/IL2 reporter cells (endogenous CD28); MFI ratio to WT CD80 ECD-Fc (R&D)
Kindly supply the reported Fold change to WT values for the records listed here.
Answer in fold, number only, no unit symbol.

Return reported Fold change to WT; argument: variant CD80 IgV-Fc H18Y/V20A/Q33L/E35D/M47V/Y53F (Fc fusion) VIHVTKEVKEVATLSCGYNASVEELAQTRIYWLKDKKMVLTMMSGDVNIWPEFKNRTIFDITNNLSIVILALRPSDEGTYECVVLKYEKDAFKREHLAEVTLSVKAD 0.03

Return reported Fold change to WT; argument: variant CD80 IgV-Fc Q33L/E35D/M47I/T62N/L85Q (Fc fusion) VIHVTKEVKEVATLSCGHNVSVEELAQTRIYWLKDKKMVLTMMSGDINIWPEYKNRTIFDINNNLSIVILALRPSDEGTYECVVQKYEKDAFKREHLAEVTLSVKAD 0.04

Return reported Fold change to WT; argument: variant CD80 IgV-Fc Q33L/E35D/M47I (Fc fusion) VIHVTKEVKEVATLSCGHNVSVEELAQTRIYWLKDKKMVLTMMSGDINIWPEYKNRTIFDITNNLSIVILALRPSDEGTYECVVLKYEKDAFKREHLAEVTLSVKAD 0.04

Return reported Fold change to WT; argument: variant CD80 IgV-Fc Q33L/E35D/T41S/M47V (Fc fusion) VIHVTKEVKEVATLSCGHNVSVEELAQTRIYWLKDKKMVLSMMSGDVNIWPEYKNRTIFDITNNLSIVILALRPSDEGTYECVVLKYEKDAFKREHLAEVTLSVKAD 0.04
